# systemName: Enoyl-[acyl-carrier-protein] reductase [NADH] FabI (Haemophilus influenzae (strain ATCC 51907 / DSM 11121 / KW20 / Rd), UniProt P44432)
# Sequence (P44432 whole entry): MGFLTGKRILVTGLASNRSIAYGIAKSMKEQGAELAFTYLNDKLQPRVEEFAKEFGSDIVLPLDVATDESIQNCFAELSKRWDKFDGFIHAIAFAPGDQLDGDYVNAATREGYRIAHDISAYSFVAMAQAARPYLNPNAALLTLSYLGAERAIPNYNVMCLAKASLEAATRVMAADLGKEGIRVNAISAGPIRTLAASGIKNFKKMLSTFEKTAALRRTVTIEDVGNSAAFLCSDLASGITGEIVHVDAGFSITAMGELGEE
# assayOverview: Inhibition of Haemophilus influenzae ATCC 51907 FabI assessed as by measuring NADH consumption rate
assayEndpoint: IC50 (µM)
Kindly answer with a numeric value in µM, unit omitted.

INPUT: Return reported IC50; argument: "Cc1c(CN(C)C(=O)/C=C/c2cnc3c(c2)CCC(=O)N3)c2ccccc2n1C"
OUTPUT: 0.39

---

# systemName: Enoyl-[acyl-carrier-protein] reductase [NADH] FabI (Escherichia coli K-12)
# Sequence (P0AEK4 whole entry): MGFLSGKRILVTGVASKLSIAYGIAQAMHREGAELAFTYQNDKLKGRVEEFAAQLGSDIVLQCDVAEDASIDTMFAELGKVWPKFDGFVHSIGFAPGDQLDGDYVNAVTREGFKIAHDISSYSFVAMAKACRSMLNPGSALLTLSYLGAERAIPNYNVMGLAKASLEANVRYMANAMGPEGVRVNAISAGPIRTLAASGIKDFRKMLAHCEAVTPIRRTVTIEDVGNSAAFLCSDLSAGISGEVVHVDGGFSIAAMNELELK
# assayOverview: Inhibition of Escherichia coli FabI in the presence of NADH using crotonyl CoA as substrate by measuring NADH consumption rate
Threshold 400 nM: IC50 strictly smaller gives y, otherwise n.

Solved cases (5 shown):
Cc1cc(Cl)ccc1Oc1coc(/C=C/c2ccc[nH]2)cc1=O | y
COc1ccc(-c2cn(Cc3ccc(C)cc3)cn2)cc1 | n
CCc1cc(O)c(Oc2ccc(C(N)=O)cc2F)cc1F | y
O=c1ccn(Cc2cccc(Br)c2)cc1C(O)c1c(Cl)cccc1Cl (configuration not stated) | n
Cc1cc(Cl)ccc1Oc1cn(C)c(COc2ccccc2)cc1=O | y

We next turn to a different molecule, shown below.
INPUT: Check if IC50 falls below 400 nM for "Cc1ccc(Cn2cnc(-c3ccsc3)c2)cc1" .
OUTPUT: n
